Just for reference, the supplement of paper PMC11208160 is where these values come from.

assay: recombinant UMI read abundance after kanamycin selection (control-corrected) (log10(CPM+1)); higher = more efficient recombination; extreme values may be limits of the assay; sequences stand for … in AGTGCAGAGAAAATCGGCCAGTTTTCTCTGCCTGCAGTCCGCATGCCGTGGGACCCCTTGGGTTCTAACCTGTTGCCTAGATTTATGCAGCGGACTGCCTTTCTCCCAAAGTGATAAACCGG…AGGTTGGTTTCACT; site = the 11-nt donor;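 also: IS621 bridge recombinase in Escherichia coli cells against a fixed T5 target plasmid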
Measured recombinant UMI read abundance (log10) values are reported for all entries that follow.
Lab note: jot the number down without any unit.

> print(dat)
                             sequence.entry  quantitative.result
1  CCTAACACATGGACCGGTTTTCCCGGTAATCCGTATTTGGC (site CCTAATACTGC)                    0
2  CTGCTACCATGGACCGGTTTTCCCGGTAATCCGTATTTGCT (site CTGCGACCTAG)                    0
3  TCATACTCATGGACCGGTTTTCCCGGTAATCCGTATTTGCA (site TGATACTCTTG)                 1.78
4  AATTATGCATGGACCGGTTTTCCCGGTAATCCGTATTTGGG (site AATTATGCTAC)              0.00898

### Prompt # return recorded recombinant UMI read abundance (log10) for entry TGCTAGACATGGACCGGTTTTCCCGGTAATCCGTATTTGGT (site TGCTAGGCTAC)
### Response 0.0111
